Biological target: human GR (Homo sapiens)
Sequence (P04150 1-777): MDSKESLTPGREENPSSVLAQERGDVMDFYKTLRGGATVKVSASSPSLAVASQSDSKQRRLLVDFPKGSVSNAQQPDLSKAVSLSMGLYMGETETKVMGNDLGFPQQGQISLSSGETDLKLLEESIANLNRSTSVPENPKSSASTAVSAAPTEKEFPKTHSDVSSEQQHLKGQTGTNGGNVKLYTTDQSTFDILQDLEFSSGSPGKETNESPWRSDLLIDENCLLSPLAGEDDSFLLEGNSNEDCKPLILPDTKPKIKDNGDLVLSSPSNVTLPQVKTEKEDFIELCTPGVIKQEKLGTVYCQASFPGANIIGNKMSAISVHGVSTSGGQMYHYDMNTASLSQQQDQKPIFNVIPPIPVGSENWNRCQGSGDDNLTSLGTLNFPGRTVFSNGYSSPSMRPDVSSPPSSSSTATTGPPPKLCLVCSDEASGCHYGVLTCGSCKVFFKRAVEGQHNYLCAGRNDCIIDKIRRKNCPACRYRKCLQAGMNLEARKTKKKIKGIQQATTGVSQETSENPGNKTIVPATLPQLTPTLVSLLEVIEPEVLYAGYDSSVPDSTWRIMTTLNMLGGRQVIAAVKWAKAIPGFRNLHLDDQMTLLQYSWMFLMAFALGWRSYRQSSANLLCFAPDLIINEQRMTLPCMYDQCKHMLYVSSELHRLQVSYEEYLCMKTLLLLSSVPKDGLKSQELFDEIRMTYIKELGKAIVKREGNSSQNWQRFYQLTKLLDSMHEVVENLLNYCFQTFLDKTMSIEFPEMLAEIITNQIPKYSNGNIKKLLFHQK
Assay: Trans-Activation Modulation of Glucocorticoid Receptor (GRAMMER), MMTV-LUC reporter, agonist mode
Type: cell-based
Set-up: endogenous in cells
Conditions: A549, A549 cells; maximum activity; read-out: Transactivation A549 Cells GRAMMER Emax
quantity-measured: Emax (%)

C[C@]12Cc3cnn(-c4ccc(F)cc4)c3C=C1CC[C@@H]2CN(CCc1ccccc1F)S(=O)(=O)CC(F)(F)F [Example 89] ... 81.4
Cc1cc(S(=O)(=O)N(CC#N)C[C@H]2CCC3=Cc4c(cnn4-c4ccc(F)cc4)C[C@@]32C)c(C)o1 [Example 33] ... 15.2

P: C[C@]12Cc3cnn(-c4ccc(F)cc4)c3C=C1CC[C@@H]2CN(CCc1ccccc1F)S(=O)(=O)Cc1cccc(C(F)(F)F)c1 [Example 88]
Q: C[C@]12Cc3cnn(-c4ccc(F)cc4)c3C=C1CC[C@@H]2CN(CCc1ccccc1O)S(=O)(=O)Cc1cccnc1 [Example 131]
R: C[C@]12Cc3cnn(-c4ccc(F)cc4)c3C=C1CC[C@@H]2CN(CCc1ccccc1F)S(=O)(=O)Cc1ccc(Cl)cc1Cl [Example 105]
S: Cc1ccc(CCN(C[C@H]2CCC3=Cc4c(cnn4-c4ccc(F)cc4)C[C@@]32C)S(=O)(=O)c2ccccc2F)cc1 [Example 91]
T: CC(C1CCC2=Cc3c(cnn3-c3ccc(F)cc3)C[C@@]21C)N(CC1CC1)S(=O)(=O)CC(F)(F)F (stereo partly shown) [Example 109]
Exercise: Which order do these items take when sorted by rising Emax? List them. Enter labels, ranked according to the request.
Solution: S, P, Q, T, R

Origin of the recorded values: patent US8299048B2
